Numbers sourced from patent US20230302150A1.

- MEASURED_ON: hTLR7 (Homo sapiens, UniProt Q9NYK1)
- Construct: expressed in transfected cells; host or cells: HEK-Blue hTLR7 reporter cell line
- Sequence (Q9NYK1 27-1049): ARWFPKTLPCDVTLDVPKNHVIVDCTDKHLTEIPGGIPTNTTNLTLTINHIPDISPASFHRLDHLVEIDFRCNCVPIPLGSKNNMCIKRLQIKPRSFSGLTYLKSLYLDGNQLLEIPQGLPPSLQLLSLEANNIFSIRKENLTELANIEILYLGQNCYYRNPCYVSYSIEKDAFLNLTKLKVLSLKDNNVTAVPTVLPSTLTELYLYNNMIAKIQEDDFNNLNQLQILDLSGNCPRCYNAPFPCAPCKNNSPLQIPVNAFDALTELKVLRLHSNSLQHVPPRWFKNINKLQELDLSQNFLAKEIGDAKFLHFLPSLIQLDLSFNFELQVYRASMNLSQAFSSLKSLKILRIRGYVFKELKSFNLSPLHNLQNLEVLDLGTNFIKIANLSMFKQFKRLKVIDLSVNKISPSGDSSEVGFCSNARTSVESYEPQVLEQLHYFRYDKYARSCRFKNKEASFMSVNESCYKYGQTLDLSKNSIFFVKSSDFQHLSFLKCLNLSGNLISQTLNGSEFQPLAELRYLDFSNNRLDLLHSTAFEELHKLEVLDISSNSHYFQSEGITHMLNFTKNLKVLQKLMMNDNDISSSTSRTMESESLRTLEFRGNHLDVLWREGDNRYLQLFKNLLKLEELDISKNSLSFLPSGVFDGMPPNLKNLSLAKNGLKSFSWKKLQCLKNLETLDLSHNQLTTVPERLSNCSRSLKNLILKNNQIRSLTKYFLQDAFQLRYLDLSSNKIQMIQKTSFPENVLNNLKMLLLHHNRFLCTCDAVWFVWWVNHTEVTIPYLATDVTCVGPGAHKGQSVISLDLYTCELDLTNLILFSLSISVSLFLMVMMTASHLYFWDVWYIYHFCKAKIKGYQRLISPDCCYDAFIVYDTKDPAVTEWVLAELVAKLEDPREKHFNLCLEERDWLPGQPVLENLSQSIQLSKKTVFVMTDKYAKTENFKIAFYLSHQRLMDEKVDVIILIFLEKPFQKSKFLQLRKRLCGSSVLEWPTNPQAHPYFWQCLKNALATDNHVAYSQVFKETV
- TEST_SUMMARY: HEK-Blue hTLR7 reporter assay (NF-kB-induced SEAP, Quanti-Blue)
- Assay type: cell-based
- CONDITION_LABEL: Table 10; read-out: TLR7 EC50
REPORTED_METRIC: EC50

Answered cases to consult:
compound="CCCCc1nc2c(N)nc3ccccc3c2n1CCCCNC(=O)c1cc(F)c(NC(=O)[C@H](CCCNC(N)=O)NC(=O)[C@@H](NC(=O)CCOCCON)C(C)C)c(F)c1 [AXC-802]" reported_result="> 5 µM"
compound="CCCCc1nc2c(N)nc3ccccc3c2n1CCCCNC(=O)c1cc(F)c(NC(=O)[C@H](C)NC(=O)CON)c(F)c1 [AXC-800]" reported_result="> 5 µM"

Then there is this compound:
Can you share its EC50? I mean this compound: CCCCc1nc2c(N)nc3ccccc3c2n1CCCCNC(=O)c1cc(F)c(NC(=O)[C@H](CCCNC(N)=O)NC(=O)[C@@H](NC(=O)CON)C(C)C)c(F)c1 [AXC-801]
> 5 µM
